The compounds below have reported AC50 for Adenosine receptor A2a (Homo sapiens).
measured.property: AC50

>>> result("CN(C)CCOC(c1ccc(Cl)cc1)c1ccccn1 (stereo unspecified)")
"> 30 µM"
>>> result("O=c1[nH]cc(F)c(=O)[nH]1")
"> 30 µM"
>>> result("CN1C(=O)CN=C(c2ccccc2F)c2cc([N+](=O)[O-])ccc21")
"> 30 µM"
>>> result("CC(C)(CO)c1cc2cc(NC(=O)C3(c4ccc5c(c4)OC(F)(F)O5)CC3)c(F)cc2n1C[C@@H](O)CO")
"> 30 µM"
>>> result("COc1ccc(-c2cc(=S)ss2)cc1")
"11 µM"
>>> result("CN1CCC(=C2c3ccccc3CC(=O)c3sccc32)CC1")
"> 10 µM"
>>> result("C[C@@H](O)[C@H]1C(=O)N2C(C(=O)O)=C(SCCN=CN)C[C@H]12 [IMIPENEM ANHYDROUS]")
"> 300 µM"
>>> result("CC(C)CN(C[C@@H](O)[C@H](Cc1ccccc1)NC(=O)O[C@H]1CCOC1)S(=O)(=O)c1ccc(N)cc1")
"> 30 µM"
>>> result("CO/N=C(\\C(=O)N[C@@H]1C(=O)N2C(C(=O)[O-])=C(C[n+]3ccc(N)n3CCO)CS[C@H]12)c1csc(N)n1")
"> 30 µM"
>>> result("Nc1nc(Cl)nc2c1ncn2[C@@H]1O[C@H](CO)[C@@H](O)[C@@H]1F")
"22.1 µM"
>>> result("CCN(CC)CCCN(c1ccccc1)C1Cc2ccccc2C1")
"> 30 µM"
>>> result("O=C(O)[C@H]1/C(=C/CO)O[C@@H]2CC(=O)N21")
"> 30 µM"
>>> result("CCc1ccc(C(=O)C(C)CN2CCCCC2)cc1 (stereo unspecified)")
"> 30 µM"
>>> result("CC(=O)Oc1ccccc1C(=O)O")
"> 30 µM"
>>> result("CC1=C(/C=C/C(C)=C/C=C/C(C)=C/C(=O)Oc2c(C)c(C)c3c(c2C)CCC(C)(CCCC(C)CCCC(C)CCCC(C)C)O3)C(C)(C)CCC1 (stereo unspecified)")
"> 30 µM"
>>> result("O=C(c1ccccc1)c1ccc2n1CCC2C(=O)O (stereo unspecified)")
"> 10 µM"
>>> result("CN1C2CCCC1CC(NC(=O)c1nn(C)c3ccccc13)C2 (stereo unspecified)")
"> 30 µM"
>>> result("Oc1cc(O)c2c(c1)O[C@H](c1ccc(O)c(O)c1)[C@@H](O)C2")
"> 30 µM"
>>> result("CN(C)CCC(O)(c1ccccc1)c1ccccc1Cl (stereo unspecified)")
"> 10 µM"
>>> result("Cc1ccc(-c2ncc(Cl)cc2-c2ccc(S(C)(=O)=O)cc2)cn1")
"> 10 µM"
>>> result("Cc1cnc(Nc2ccc(OCCN3CCCC3)cc2)nc1Nc1cccc(S(=O)(=O)NC(C)(C)C)c1")
"3.75 µM"
>>> result("COc1cc2c(cc1OC)C1CC(=O)C(CC(C)C)CN1CC2 (stereo unspecified)")
"> 30 µM"
>>> result("CN(C)[C@@H]1C(O)=C(C(=O)NCN2CCCC2)C(=O)[C@@]2(O)C(O)=C3C(=O)c4c(O)cccc4[C@@](C)(O)[C@H]3C[C@@H]12")
"> 10 µM"
>>> result("CCN(C(C)=O)c1cccc(-c2ccnc3c(C#N)cnn23)c1")
"> 30 µM"
>>> result("O=C(O)c1nn(Cc2ccc(Cl)cc2Cl)c2ccccc12")
"> 30 µM"
>>> result("Cc1cccc(Nc2ccncc2S(=O)(=O)NC(=O)NC(C)C)c1 [TORSEMIDE]")
"> 30 µM"
>>> result("OCCN(CCO)c1nc(N2CCCCC2)c2nc(N(CCO)CCO)nc(N3CCCCC3)c2n1")
"> 30 µM"
>>> result("CCN(CC)Cc1nccn1-c1ccc([N+](=O)[O-])cc1C(=O)c1ccccc1Cl")
"> 30 µM"
>>> result("CC(=O)OCC1=C(C(=O)O)N2C(=O)[C@@H](NC(=O)CSc3ccncc3)[C@H]2SC1")
"> 10 µM"
>>> result("O=C(O)c1ccc2nc(-c3cc(Cl)cc(Cl)c3)oc2c1")
"> 30 µM"
>>> result("COc1nc(C)nc(Cl)c1N=C1NCCN1")
"> 30 µM"
>>> result("CN(C)CCOC(=O)C(c1ccccc1)C1(O)CCCC1 (stereo unspecified) [CYCLOPENTOLATE]")
"> 10 µM"
>>> result("CCOc1cc2ncc(C#N)c(Nc3ccc(OCc4ccccn4)c(Cl)c3)c2cc1NC(=O)/C=C/CN(C)C")
"> 30 µM"
>>> result("CC(C)NCC(O)COc1ccc(CC(N)=O)cc1 (stereo unspecified)")
"> 30 µM"
>>> result("O=C(O)COC(=O)Cc1ccccc1Nc1c(Cl)cccc1Cl")
"> 30 µM"
>>> result("CC(=O)OCC1=C(C(=O)O)N2C(=O)[C@@H](NC(=O)Cc3cccs3)[C@H]2SC1")
"> 30 µM"
